Target: rHuR (HuR-Myc-His) (Homo sapiens, UniProt Q15717 1-326)
Sequence (Q15717 whole entry): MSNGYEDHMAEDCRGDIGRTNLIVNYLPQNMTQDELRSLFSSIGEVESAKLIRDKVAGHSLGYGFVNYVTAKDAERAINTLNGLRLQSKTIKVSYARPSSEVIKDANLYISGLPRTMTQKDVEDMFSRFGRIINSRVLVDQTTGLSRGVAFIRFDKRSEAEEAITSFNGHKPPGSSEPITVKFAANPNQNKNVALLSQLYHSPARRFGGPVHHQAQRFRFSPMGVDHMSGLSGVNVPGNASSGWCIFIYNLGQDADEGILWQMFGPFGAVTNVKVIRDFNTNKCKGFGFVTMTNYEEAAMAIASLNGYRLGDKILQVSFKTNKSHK
Assay: AlphaScreen saturation binding; AlphaScreen: 25 mM HEPES pH 7.4, 100 mM NaCl, 0.1% BSA, room temperature; REMSA: 20 mM HEPES pH 7.5, 50 mM KCl, 0.5 ug BSA, 0.25% glycerol, room temperature, 6% native gel 0.5X TBE at 4 C
Settings: protein: recombinant; tags: C-terminal c-Myc and His6; label: 5'-biotin; single strand
Measurement Kind: Kd (nM)
Write the value in nM as a bare number.

Binder | Endpoint Unit | Kd
AUUAUUUAUUAUUUAUUUAUUAUUUA (ssRNA) [Bi-TNF] | nM | 2.5

# get_value(readout='Kd', item= UAUUAAUUUAAUUAUUUAAUAAUAUUU (ssRNA) [Bi-COX] ) 4.58
